Tested on: KG-1a
test.name: MTT anti-proliferative assay
Format: cell-based, human
run.parameters: Homo sapiens, KG-1a, 24 h, read-out: IC50 ± SD, KG-1a
# reported pIC50; entries follow
pIC50 field: float, defined as -log10 of concentration (mol/L).

In the examples that follow, each entry is paired with its recorded pIC50.
COc1ccc(C=CC(=O)c2ccc(NC(=O)CSc3nnc(-c4ccc(OC)c(OC)c4)o3)cc2)cc1    4.34
COc1ccc(C=CC(=O)c2ccc(NC(=O)CSc3nnc(-c4ccc(Cl)cc4)o3)cc2)cc1    4.25
COc1cc(-c2nnc(SCC(=O)Nc3ccc(C(=O)C=Cc4ccccc4)cc3)o2)cc(OC)c1OC    4.07
COc1ccc(C=CC(=O)c2ccc(NC(=O)CSc3nnc(-c4cc(OC)c(OC)c(OC)c4)o3)cc2)cc1    5.46

Next up:
## Input // lookup pIC50 for O=C(CSc1nnc(-c2ccc(Cl)cc2)o1)Nc1ccc(C(=O)C=Cc2ccc(Cl)cc2)cc1
## Output 4.04

---

measured.on: UniProtKB P12931
test.name: Src kinase assay
Type: biochemical
run.parameters: read-out: Src (IC50 μM); PGT substrate, ATP 50 μM
value.type: IC50 (µM)
# unit: µM | format: bare number

## Input // lookup IC50 for O=C(CSc1nnc(-c2ccccc2)o1)Nc1ccc(C(=O)C=Cc2ccccc2)cc1 [Compound 8a]
## Output 4.5

## Input Subsequent entry: COc1ccc(-c2nnc(SCC(=O)Nc3ccc(C(=O)C=Cc4ccc(OC)c(OC)c4)cc3)o2)cc1 [Compound 8m]
## Output 12.5

## Input Subsequent entry: COc1cc(C=CC(=O)c2ccc(NC(=O)CSc3nnc(-c4ccccc4)o3)cc2)cc(OC)c1OC [Compound 8d]
## Output 13.4

---

measured.on: c-Src (Homo sapiens)
Sequence (P12931 whole entry): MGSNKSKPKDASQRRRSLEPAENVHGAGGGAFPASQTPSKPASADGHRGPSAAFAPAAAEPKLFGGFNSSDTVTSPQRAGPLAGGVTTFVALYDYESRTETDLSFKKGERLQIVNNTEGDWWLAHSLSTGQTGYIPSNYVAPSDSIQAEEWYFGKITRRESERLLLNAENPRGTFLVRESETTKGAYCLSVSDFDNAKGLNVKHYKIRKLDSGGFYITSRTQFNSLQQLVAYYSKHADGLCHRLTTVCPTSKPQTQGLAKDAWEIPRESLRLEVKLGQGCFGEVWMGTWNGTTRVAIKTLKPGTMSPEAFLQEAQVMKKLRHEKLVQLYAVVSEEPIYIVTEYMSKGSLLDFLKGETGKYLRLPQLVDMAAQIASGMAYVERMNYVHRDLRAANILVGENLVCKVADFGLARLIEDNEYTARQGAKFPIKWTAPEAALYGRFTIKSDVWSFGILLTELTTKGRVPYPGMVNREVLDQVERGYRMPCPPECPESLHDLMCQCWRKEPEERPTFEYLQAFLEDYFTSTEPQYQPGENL
test.name: Src kinase assay
Format: biochemical
value.type: pIC50
pIC50 field: float, defined as -log10 of concentration (mol/L).

In the examples that follow, each entry is paired with its recorded pIC50.
COc1ccc(-c2nnc(SCC(=O)Nc3ccc(C(=O)C=Cc4cc(OC)c(OC)c(OC)c4)cc3)o2)cc1OC    4.81
COc1ccc(-c2nnc(SCC(=O)Nc3ccc(C(=O)C=Cc4ccccc4)cc3)o2)cc1    4.60
O=C(CSc1nnc(-c2ccc(Cl)cc2)o1)Nc1ccc(C(=O)C=Cc2ccc(Cl)cc2)cc1    4.30

Next up:
## Input // lookup pIC50 for COc1ccc(C=CC(=O)c2ccc(NC(=O)CSc3nnc(-c4ccc(OC)c(OC)c4)o3)cc2)cc1OC
## Output 4.12
